Hi there, I'd appreciate the recorded AC40 for every entry that follows.
test system: CAI-1 sensor histidine kinase CqsS (Vibrio cholerae); assay: Inducers of light production, absence of autoinducers, V cholerae delta luxQ strain, confirmatory (AID 651841); settings: V. cholerae WN1103 delta luxQ, luciferase light, 6 h

Recorded AC40 of `CCCCn1nnnc1NCc1ccc(N2CCCC2)cc1` , please. 2640 nM

Now the same for `CCn1nnnc1NCc1ccc(N2CCCC2)cc1` 10.7 nM

Now the same for CCC(C)NC(=O)Cc1ccc(-c2ccccc2)cc1 (stereo not drawn) 2060 nM

Now the same for `CCCn1nnnc1NCc1ccc(N2CCCC2)cc1` 12.1 nM

Now the same for `CCC(CC)NC(=O)Cc1ccc(-c2ccccc2)cc1` 2200 nM

Now the same for `O=C(Cc1ccc(-c2ccccc2)cc1)NC1CCOCC1` 1200 nM

Now the same for `O=C(Cc1ccc(-c2ccccc2)cc1)NC1CCCCC1` 8980 nM

Now the same for `CCCn1nnnc1NCc1ccc(C(C)C)cc1` 319 nM

###

Hi there, I'd appreciate the recorded AC40 for every entry that follows.
test system: CAI-1 sensor histidine kinase CqsS (Vibrio cholerae); test: Inducers of light production, absence of autoinducers, V cholerae delta luxQ strain, confirmatory (AID 651841); details: V. cholerae WN1103 delta luxQ, luciferase light, 6 h

Recorded AC40 of `CC(C)c1ccc(CNc2nnnn2C)cc1` , please. 577 nM

Now the same for `Cn1nnnc1NCc1ccc(N2CCCC2)cc1` 351 nM

Now the same for `CCn1nnnc1NCc1ccc(N2CCCCC2)cc1` 55.5 nM

Now the same for `CCn1nnnc1CCc1ccc(N2CCCC2)cc1` 713 nM

Now the same for `O=C(Cc1ccc(-c2ccccc2)cc1)NC1CCC1` 280 nM

Now the same for `CC(C)NC(=O)Cc1ccc(-c2ccccc2)cc1` 2500 nM

Now the same for `CCn1nnnc1NCc1cccc(N2CCCC2)c1` 51.2 nM

###

Hi there, I'd appreciate the recorded activation for every entry that follows.
system: CAI-1 sensor histidine kinase CqsS (Vibrio cholerae); assay: Inducers of light production, absence of autoinducers, V cholerae delta luxQ strain, confirmatory (AID 651841); settings: V. cholerae WN1103 delta luxQ, luciferase light, 6 h; at 80 µM (top of the series)
Calls of active or inactive are those of the source. The rule behind the calls is not given here.

Recorded activation of `CCn1nnc(CCc2ccc(N3CCCC3)cc2)n1` , please. 0.131% (inactive)

Now the same for `c1ccc(Cn2nnnc2NCc2ccc(N3CCCC3)cc2)cc1` 0.279% (inactive)

Now the same for `CCc1ccccc1NCc1ccc(N2CCCC2)cc1` 0.105% (inactive)

Now the same for `CCCn1nnnc1NCc1ccccc1Cl` 0.104% (inactive)

Now the same for `Fc1ccc(Cn2nnnc2NCc2ccc(N3CCCC3)cc2)cc1` 0.54% (inactive)

Now the same for `Cc1ccc(Cn2nnnc2NCc2ccc(N3CCCC3)cc2)cc1` 0.549% (inactive)

Now the same for `O=C(Cc1ccccc1OC(F)(F)F)NC1CCCC1` 0.045% (inactive)

Now the same for `CCn1nccc1/N=C/c1ccc(N2CCCC2)cc1` 0.487% (inactive)

Now the same for `O=C(Cc1ccccc1F)NC1CCCC1` 0.603% (inactive)

Now the same for `c1ccc(Cn2nnc(NCc3ccc(N4CCCC4)cc3)n2)cc1` 0.159% (inactive)

Now the same for `O=C(Cc1cccc(F)c1)NC1CCCC1` 0.377% (inactive)

Now the same for `COc1ccc(CC(=O)NC2CCCC2)cc1` 13% (inactive)

Now the same for `O=C(Cc1cccc(OC(F)(F)F)c1)NC1CCCC1` 2.18% (inactive)
